Reference source for all entries: BindingDB's records for doi:10.1016/j.bmcl.2005.10.026

Experiment: Inhibition of PAF mediated human eosinophil chemotaxis
experimental.endpoint: IC50 (nM)
Answers are plain numbers, in nM.

Bench note: what IC50 did C[C@@H](NC(=O)c1cccnc1Oc1ccc(F)cc1)c1cccs1 show? 1

* * *

Assay: Inhibition of C5a mediated human eosinophil chemotaxis
experimental.endpoint: pIC50
One number for each entry, as −log10 of the molar value.

Bench note: what pIC50 did C[C@@H](NC(=O)c1cccnc1Oc1ccc(F)cc1)c1cccs1 show? 9.00
